Data provenance: patent US20220033501A1

Molecular target: T1, monkey TIM-3 on CHOK1 stable cell line (CHOK1-cTIM-3) (monkey)
T1 chain: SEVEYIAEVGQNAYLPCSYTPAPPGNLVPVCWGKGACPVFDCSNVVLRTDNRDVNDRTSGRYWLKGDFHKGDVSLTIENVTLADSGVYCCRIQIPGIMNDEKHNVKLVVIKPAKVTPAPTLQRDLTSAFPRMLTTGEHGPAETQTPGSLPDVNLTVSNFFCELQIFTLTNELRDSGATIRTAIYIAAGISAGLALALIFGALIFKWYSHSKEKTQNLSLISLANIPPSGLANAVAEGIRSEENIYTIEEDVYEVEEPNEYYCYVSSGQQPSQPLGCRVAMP
Assay: FACS, CHOK1-cTIM-3 cells, 0.013 nM antibody
attribute_measured: Mean fluorescence intensity
Please state the value as a number alone, without comment.

# count of solved cases: 2
{"binder": "18D2H2 fully human TIM-3 antibody (human IgG4, kappa) (antibody, V domains shown) VH: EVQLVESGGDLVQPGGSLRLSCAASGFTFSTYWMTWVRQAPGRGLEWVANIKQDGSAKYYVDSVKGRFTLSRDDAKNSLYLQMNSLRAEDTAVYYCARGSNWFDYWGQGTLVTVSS VL: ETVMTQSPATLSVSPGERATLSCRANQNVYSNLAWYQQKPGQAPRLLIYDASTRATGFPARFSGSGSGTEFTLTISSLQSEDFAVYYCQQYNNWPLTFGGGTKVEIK", "experimental_value": 14.8}
{"binder": "39E5H1 fully human TIM-3 antibody (human IgG4, kappa) (antibody, V domains shown) VH: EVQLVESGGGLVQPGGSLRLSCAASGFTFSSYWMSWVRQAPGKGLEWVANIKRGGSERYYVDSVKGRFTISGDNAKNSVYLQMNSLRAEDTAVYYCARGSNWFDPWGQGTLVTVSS VL: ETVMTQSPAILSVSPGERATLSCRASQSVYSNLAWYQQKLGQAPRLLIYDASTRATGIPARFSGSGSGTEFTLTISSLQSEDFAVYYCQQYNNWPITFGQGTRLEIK", "experimental_value": 14.8}

Quick note, Mean fluorescence intensity for 7A4F10 fully human TIM-3 antibody (human IgG4, kappa) (antibody, V domains shown) VH: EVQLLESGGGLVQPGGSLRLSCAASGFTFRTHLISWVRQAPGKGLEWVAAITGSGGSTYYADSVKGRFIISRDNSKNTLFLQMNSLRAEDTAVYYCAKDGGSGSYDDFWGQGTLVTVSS VL: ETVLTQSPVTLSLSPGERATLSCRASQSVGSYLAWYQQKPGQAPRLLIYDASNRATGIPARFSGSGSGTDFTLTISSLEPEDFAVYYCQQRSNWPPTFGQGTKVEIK landed at 7.1
